systemName: Bifunctional 3'-5' exonuclease/ATP-dependent helicase WRN (Homo sapiens) (UniProt Q14191)
Sequence (Q14191 whole entry, looked up): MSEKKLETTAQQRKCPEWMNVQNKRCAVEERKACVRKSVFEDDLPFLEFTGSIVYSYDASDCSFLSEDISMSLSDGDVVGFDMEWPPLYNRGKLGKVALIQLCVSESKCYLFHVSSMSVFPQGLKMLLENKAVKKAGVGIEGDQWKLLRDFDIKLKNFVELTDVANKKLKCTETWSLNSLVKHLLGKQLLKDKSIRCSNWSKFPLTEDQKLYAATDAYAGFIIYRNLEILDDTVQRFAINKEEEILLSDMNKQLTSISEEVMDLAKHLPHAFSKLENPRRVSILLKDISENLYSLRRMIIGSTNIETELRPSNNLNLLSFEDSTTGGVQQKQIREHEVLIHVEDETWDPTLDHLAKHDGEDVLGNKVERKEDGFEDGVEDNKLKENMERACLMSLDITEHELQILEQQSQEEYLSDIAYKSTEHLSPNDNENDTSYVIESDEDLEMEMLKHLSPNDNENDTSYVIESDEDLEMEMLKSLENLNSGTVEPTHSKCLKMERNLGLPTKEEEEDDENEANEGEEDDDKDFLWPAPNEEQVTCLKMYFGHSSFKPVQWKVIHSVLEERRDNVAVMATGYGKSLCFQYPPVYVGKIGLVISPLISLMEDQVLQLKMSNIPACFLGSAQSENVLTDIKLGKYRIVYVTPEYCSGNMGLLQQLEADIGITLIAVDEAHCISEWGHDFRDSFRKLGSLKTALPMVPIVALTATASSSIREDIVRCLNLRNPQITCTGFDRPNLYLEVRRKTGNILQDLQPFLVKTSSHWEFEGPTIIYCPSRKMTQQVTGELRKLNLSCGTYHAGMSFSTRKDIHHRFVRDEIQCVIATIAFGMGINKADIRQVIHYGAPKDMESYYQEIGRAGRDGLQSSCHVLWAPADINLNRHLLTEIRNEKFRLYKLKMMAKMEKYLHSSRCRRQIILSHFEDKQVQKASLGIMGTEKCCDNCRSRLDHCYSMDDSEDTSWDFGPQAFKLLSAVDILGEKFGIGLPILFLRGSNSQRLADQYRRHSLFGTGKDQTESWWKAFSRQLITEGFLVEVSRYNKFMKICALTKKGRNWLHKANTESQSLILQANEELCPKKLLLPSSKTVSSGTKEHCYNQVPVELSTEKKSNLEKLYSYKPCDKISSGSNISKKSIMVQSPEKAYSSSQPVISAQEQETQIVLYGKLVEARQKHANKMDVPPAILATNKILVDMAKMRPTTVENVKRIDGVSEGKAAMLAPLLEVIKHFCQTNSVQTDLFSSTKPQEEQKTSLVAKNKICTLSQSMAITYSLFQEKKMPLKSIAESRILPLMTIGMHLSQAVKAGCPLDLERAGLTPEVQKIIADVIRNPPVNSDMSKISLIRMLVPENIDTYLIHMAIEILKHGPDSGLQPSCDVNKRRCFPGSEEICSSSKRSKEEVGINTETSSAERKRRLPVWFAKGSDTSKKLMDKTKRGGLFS
assaySummary: qHTS for Inhibitors of WRN Helicase; note: nearly all actives have a fitted effect of over 55% in size
runParameters: WRN helicase unwinding, fluorescent forked duplex, kinetic; series mostly up to 114 µM
About 1,700 (0.47%) of roughly 360,000 compounds were called active. Another 2% or so got no clear call; they are omitted. Calls come from the whole dose curve; as a rule, active = well fitted inhibition curve with a large enough effect; inconclusive = small, poorly fitted or top-dose-only effect; inactive = no such curve, though single readings can be large or run the other way. The list comes from a sample in which actives are over-represented; it also holds close analogues and randomly drawn compounds.
// allowed return values: T (active), F (inactive)

# compound, systemName, className
records = [
    ("O=C(N/N=C/c1ccco1)c1ccc(NC(=O)C2CC2)cc1", "Bifunctional 3'-5' exonuclease/ATP-dependent helicase WRN (Homo sapiens) (UniProt Q14191)", "F"),
    ("CCCCSc1nnc2c(n1)OC=Nc1ccccc1-2", "Bifunctional 3'-5' exonuclease/ATP-dependent helicase WRN (Homo sapiens) (UniProt Q14191)", "F"),
    ("CCCCn1c(N)c(N(CCOC)C(=O)c2sc3ccccc3c2Cl)c(=O)[nH]c1=O", "Bifunctional 3'-5' exonuclease/ATP-dependent helicase WRN (Homo sapiens) (UniProt Q14191)", "F"),
    ("CC(C)C[C@H]1CNC(=S)N1C[C@H]1CCCN1C[C@H](Cc1ccc(O)cc1)N1C[C@H](Cc2ccc(O)cc2)N(CC2CCCCC2)C1=S", "Bifunctional 3'-5' exonuclease/ATP-dependent helicase WRN (Homo sapiens) (UniProt Q14191)", "F"),
    ("O=C(O)C(c1ccccc1)N1C(=O)/C(=C\\c2ccc(-c3cccc(Cl)c3)o2)SC1=S (centres undefined)", "Bifunctional 3'-5' exonuclease/ATP-dependent helicase WRN (Homo sapiens) (UniProt Q14191)", "T"),
    ("COc1cccc(-c2nnc(NC(=O)c3ccc(S(=O)(=O)N(CC(C)C)CC(C)C)cc3)o2)c1", "Bifunctional 3'-5' exonuclease/ATP-dependent helicase WRN (Homo sapiens) (UniProt Q14191)", "F"),
    ("O=C(Cc1ccc([N+](=O)[O-])cc1)N/N=C/c1ccco1", "Bifunctional 3'-5' exonuclease/ATP-dependent helicase WRN (Homo sapiens) (UniProt Q14191)", "F"),
    ("O=c1[nH]oc(O)c1-c1ncc(C(F)(F)F)cc1Cl", "Bifunctional 3'-5' exonuclease/ATP-dependent helicase WRN (Homo sapiens) (UniProt Q14191)", "F"),
    ("C#CCOCCOCCOCCNc1nc(N2CCOCC2)nc(N2CCN(C(=O)[C@H](Cc3ccc(O)cc3)n3cc(CCO)nn3)CC2)n1", "Bifunctional 3'-5' exonuclease/ATP-dependent helicase WRN (Homo sapiens) (UniProt Q14191)", "F"),
    ("CCCNC(=O)C1(C)CCCN(Cc2cccc(C(F)(F)F)c2)C1 (centres undefined)", "Bifunctional 3'-5' exonuclease/ATP-dependent helicase WRN (Homo sapiens) (UniProt Q14191)", "F"),
]

(Q) Short answer needed: outcome of this test for "COc1ccc(Br)c(Cn2c(C)c(C(=O)NCc3cccs3)sc2=O)c1" ?
(A) F

(Q) Short answer needed: outcome of this test for "Cc1ccc(S(=O)(=O)NC[C@H]2O[C@@H](n3cnc4c(N)ncnc43)[C@H](O)[C@@H]2O)s1" ?
(A) F

(Q) Short answer needed: outcome of this test for O=C(COC(=O)CCCN1C(=O)c2cccc3cccc(c23)C1=O)NC1CCS(=O)(=O)C1 (centres undefined) ?
(A) F

(Q) Short answer needed: outcome of this test for "O=C(NNc1c2ccccc2nc2ccccc12)c1cc2ccccc2cc1O" ?
(A) F

(Q) Short answer needed: outcome of this test for "COC(=O)CN1C(=O)N/C(=C/c2ccc(OC)c(C)c2OC)C1=O" ?
(A) F

(Q) Short answer needed: outcome of this test for "C[C@H]1CN([C@@H](C)CO)C(=O)CCCn2nncc2CO[C@@H]1CN(C)S(=O)(=O)c1cccc(C#N)c1" ?
(A) F

(Q) Short answer needed: outcome of this test for "CCc1nc2ccc(C(=O)NCc3ccc(OC)cc3)cn2c1N(CC)Cc1cccc(Br)c1" ?
(A) F

(Q) Short answer needed: outcome of this test for "O=C(CCCN1C(=O)c2cccc3cccc(c23)C1=O)N1CCN(Cc2ccc3c(c2)OCO3)CC1" ?
(A) F

(Q) Short answer needed: outcome of this test for "C[C@H](NC(=O)c1nc[nH]c1C(=O)N[C@@H](C)C(=O)OC(C)(C)C)C(=O)OC(C)(C)C" ?
(A) F

(Q) Short answer needed: outcome of this test for "O=S(=O)(NC1CC1)c1ccc(F)c(F)c1" ?
(A) F

(Q) Short answer needed: outcome of this test for "O=C(NCCc1ccco1)c1nn(Cc2ccccc2)c(=O)c2ccccc12" ?
(A) F

(Q) Short answer needed: outcome of this test for "[O-][n+]1c2c(nn1-c1ccc(Cl)c(Cl)c1)-c1nonc1CC2" ?
(A) F

(Q) Short answer needed: outcome of this test for "COC(=O)[C@@]1(Cc2ccc(F)cc2)[C@H]2c3cc(C(=O)N4CCCC4)n(C[C@H](O)CO)c3C[C@H]2CN1C(=O)c1ccccc1" ?
(A) F

(Q) Short answer needed: outcome of this test for "CC(=O)Nc1ccc(Nc2c([N+](=O)[O-])cc(S(C)(=O)=O)cc2[N+](=O)[O-])cc1" ?
(A) F

(Q) Short answer needed: outcome of this test for "O=C(N/N=C/c1ccco1)c1ccc(C(=O)N/N=C/c2ccco2)o1" ?
(A) T

(Q) Short answer needed: outcome of this test for Cc1ccccc1NC(=O)Cn1c(=O)n(CC2CCCO2)c(=O)c2ccccc21 (centres undefined) ?
(A) F

(Q) Short answer needed: outcome of this test for COC(=O)C1=CN(c2c(C)cc(C)cc2C)C(N)=C(C#N)C1c1cccc(F)c1 (centres undefined) ?
(A) F

====

systemName: Bifunctional 3'-5' exonuclease/ATP-dependent helicase WRN (Homo sapiens) (UniProt Q14191)
assaySummary: qHTS for Inhibitors of WRN Helicase; note: nearly all actives have a fitted effect of over 55% in size
runParameters: WRN helicase unwinding, fluorescent forked duplex, kinetic; series mostly up to 114 µM
The whole screen tested about 360,000 compounds, of which about 1,700 (0.47%) were called active. Roughly 2% stayed inconclusive and do not appear here. Calls come from the whole dose curve; as a rule, active = well fitted inhibition curve with a large enough effect; inconclusive = small, poorly fitted or top-dose-only effect; inactive = no such curve, though single readings can be large or run the other way. For the sample, actives were picked, then their nearest neighbours and some compounds at random.
// allowed return values: yes (active), no (inactive)

# compound, className
data = [
    ("COC(=O)[C@@]1(Cc2ccc(OC)cc2)[C@H]2c3cc(C(=O)N4CCCC4)n(Cc4ccc(OC(F)(F)F)cc4)c3C[C@H]2CN1C(=O)c1ccccc1", "no"),
    ("CCN(CC)CCNCC(=O)Nc1ccc(Oc2ccccc2)cc1", "no"),
    ("COc1ccc2ccn(C)c2c1", "no"),
    ("CCN(CC)CCOc1ccc2c(c1)C(=NNC(=O)c1ccccn1)c1cc(OCCN(CC)CC)ccc1-2", "yes"),
    ("CCOC(=O)N1CCN(C(=O)COC(=O)c2cccc(S(C)(=O)=O)c2)CC1", "no"),
]

(Q) Short answer needed: outcome of this test for "CC1=NN(c2ccc(Cl)c(C(=O)O)c2)C(=O)/C1=C/c1ccc(-c2ccccc2[N+](=O)[O-])o1" ?
(A) yes

(Q) Short answer needed: outcome of this test for "CCOC(=O)c1[nH]c2ccc(OC)cc2c1NC(=O)N1CCOCC1" ?
(A) no

(Q) Short answer needed: outcome of this test for O=C1C2C3C=CC(C4CC34)C2C(=O)N1/N=C/c1ccc(-c2ccccc2[N+](=O)[O-])o1 (centres undefined) ?
(A) no

(Q) Short answer needed: outcome of this test for Cc1cccc(C)c1NC(=O)C(c1cccc2ccccc12)n1c(=O)c(-c2ccco2)nc2ccccc21 (centres undefined) ?
(A) no

====

systemName: Bifunctional 3'-5' exonuclease/ATP-dependent helicase WRN (Homo sapiens)
assaySummary: qHTS for Inhibitors of WRN Helicase; note: nearly all actives have a fitted effect of over 55% in size
runParameters: WRN helicase unwinding, fluorescent forked duplex, kinetic; series mostly up to 114 µM
Hit rate of the full screen: of about 360,000 compounds, about 1,700 (0.47%) were called active. Roughly 2% stayed inconclusive and do not appear here. Calls come from the whole dose curve; as a rule, active = well fitted inhibition curve with a large enough effect; inconclusive = small, poorly fitted or top-dose-only effect; inactive = no such curve, though single readings can be large or run the other way. The entries come from a sample that favours actives as a whole.
// allowed return values: class 1 for active, class 0 for inactive

# compound, className
data = [
    ("O=C(NCCCn1ccnc1)C(=O)c1cn(CC(=O)N2CCCCCC2)c2ccccc12", "class 0"),
    ("Cc1cc(C)c(S(=O)(=O)N2C=CC(C(F)(F)F)=NCC2)c(C)c1", "class 0"),
    ("CCCCOCCCNC(=O)C[C@@H]1C[C@@]2(C(=O)OCC)CCCC=C2N(CCC2=CCCCC2)C1=O", "class 0"),
]

(Q) Short answer needed: outcome of this test for "Cn1cnnc1SCC(=O)Nc1ccc(N2CCOCC2)cc1" ?
(A) class 0

(Q) Short answer needed: outcome of this test for Cc1ccnc(SC2CC(=O)N(c3ccccc3)C2=O)n1 (configuration not stated) ?
(A) class 0

(Q) Short answer needed: outcome of this test for "O=C1Nc2ccccc2NC(c2ccc3c(c2)OCO3)=C1N(Cc1ccc(F)cc1)C(=O)c1ccco1" ?
(A) class 0

(Q) Short answer needed: outcome of this test for "CCc1nnc(NC(=O)c2cc(S(=O)(=O)N3CCCCC3)ccc2C)s1" ?
(A) class 0

(Q) Short answer needed: outcome of this test for "CC(C)CCN1C(=O)c2ccc(C(=O)Nc3cccc(S(N)(=O)=O)c3)cc2C1=O" ?
(A) class 0

(Q) Short answer needed: outcome of this test for COc1ccc(CN2CCC(C)(Oc3cccc(F)c3)C2)c2ccccc12 (configuration not stated) ?
(A) class 0

(Q) Short answer needed: outcome of this test for "CCc1ccc2nc3sc(C(=O)Nc4nnc(CC)s4)c(N)c3cc2c1" ?
(A) class 1

(Q) Short answer needed: outcome of this test for "CN1CCN(c2ccc(NC(=O)c3cc(Cl)c4c(c3)OCCO4)cc2)CC1" ?
(A) class 0

(Q) Short answer needed: outcome of this test for "COC(=O)[C@@]12C[C@@H](CC(=O)N3CCC(c4ccccc4)CC3)C(=O)N(Cc3ccccc3)C1=CCC(C)(C)C2" ?
(A) class 0

(Q) Short answer needed: outcome of this test for "Cc1ccc(C2(c3ccc(C)cc3)NC(=O)N(Cc3c(C)noc3C)C2=O)cc1" ?
(A) class 0

(Q) Short answer needed: outcome of this test for "CCOC(=O)N1CCN(C(=O)c2ccc(CN(c3ccc(C)c(C)c3)S(C)(=O)=O)cc2)CC1" ?
(A) class 0

(Q) Short answer needed: outcome of this test for "CCCCCc1c(-c2ccc(OC)c(OC)c2)ncn1CCc1ccccc1OC" ?
(A) class 0

(Q) Short answer needed: outcome of this test for "O=C(c1ccccc1)c1cc(-c2ccccn2)c(N2CCOCC2)s1" ?
(A) class 0

(Q) Short answer needed: outcome of this test for CN(C(=O)COC(=O)Cc1ccccc1[N+](=O)[O-])C1CCS(=O)(=O)C1 (configuration not stated) ?
(A) class 0

(Q) Short answer needed: outcome of this test for "O=C1Nc2ccc(Br)cc2/C1=N/N=C/C1=C(N2CCOCC2)C(=C\c2ccccc2)/CC1" ?
(A) class 0

(Q) Short answer needed: outcome of this test for "CCc1nnc(NC(=O)c2ccco2)s1" ?
(A) class 0
